Hey, just so you know, these numbers are from PubChem BioAssay.

testedSystem: Muscarinic acetylcholine receptor M4 (Homo sapiens)
assayProtocol: M4-linked GIRK flux change, two-sided – cell-based, HEK293 M4/GIRK, thallium flux, BTC-AM, M4 allosteric agonist project, primary screen (AID 625);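 further: thallium influx through GIRK channels coupled to M4 in HEK293 cells with BTC-AM dye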
experimentalParameters: at 10 µM, actives lie on both sides
attributeMeasured: fluorescence slope
Number, no unit, nothing else.

Worked examples follow.
{"compound": "O=C(CN1C(=O)COc2ccccc21)NCCN1CCc2ccccc2C1", "fluorescence slope": 0.00634}
{"compound": "Cc1cccc(C)c1NC(=O)N1CCN(C2CCCCC2)CC1", "fluorescence slope": 0.00564}
{"compound": "Cc1cccc(-n2c(Cc3cc(=O)[nH]c(=O)[nH]3)nnc2SCC(=O)NCc2ccco2)c1", "fluorescence slope": 0.00455}
{"compound": "CS(=O)(=O)N1CCN(C(=O)c2ccc(-c3ccccc3)cc2)CC1", "fluorescence slope": 0.00648}
{"compound": "COc1ccc(-c2cc(C(=O)N3CCN(Cc4ccccc4)CC3)no2)cc1OC", "fluorescence slope": 0.00627}

Q) Quick one: fluorescence slope for CC(=O)OCC(=O)c1ccc2ccn(C(C)=O)c2c1 ?
A) 0.00624

Q) Value lookup for fluorescence slope; key = ON=C1/C(=N\O)CC2(C/C1=N/O)OCCO2
A) 0.00423

Q) Consider the compound CCC(C)(C)NC(=O)C(OC(=O)c1ccco1)c1ccccc1OC (stereo not drawn) and give its measured fluorescence slope.
A) 0.00739

Q) Would you mind telling me what fluorescence slope value was observed for Cc1cc(C)c(C)c(S(=O)(=O)Nc2ccc(O)cc2)c1C ?
A) 0.00478
